testedSystem: bCA (Bos taurus, UniProt P00921)
Construct: gene CA2; commercial bovine carbonic anhydrase
Sequence (P00921 2-260): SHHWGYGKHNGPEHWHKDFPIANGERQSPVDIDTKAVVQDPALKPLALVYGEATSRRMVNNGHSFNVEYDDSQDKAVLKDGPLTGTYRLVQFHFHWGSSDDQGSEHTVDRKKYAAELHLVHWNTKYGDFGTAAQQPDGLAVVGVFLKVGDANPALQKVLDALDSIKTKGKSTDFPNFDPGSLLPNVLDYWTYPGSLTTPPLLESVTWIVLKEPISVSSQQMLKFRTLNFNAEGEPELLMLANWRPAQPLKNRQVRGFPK
testDetails: biochemical
Set-up: differential scanning fluorimetry (thermal shift) with SYPRO Orange, bovine carbonic anhydrase
Description: For 800-compound screening, the test reactions were set up in the following buffer: 10 mM NaH2PO4/Na2HPO4, pH 7.0, 10 mM NaCl. The total volume of the reaction mixture per well was 10 µL. […] The temperature was raised at 1.6 °C/s rate to 40 °C without signal reading. Starting from 40 °C up to 85 °C the heating rate was set to 0.05 °C/s with constant fluorescence reading, using 470/623 nm filter set. […] The peak of the first derivative for the fluorescence curve was used to define melting temperature Tm. […]
propertyMeasured: ΔTm at 20 µM

                                   molecule  reported
0  COc1ccc(C(=O)N2CCN(C(C#N)C(C)C)CC2)cc1OC(F)F (stereo not shown)   1.37 °C
1  CC(C)C(C#N)N1CCN(C(=O)C2CCCO2)CC1 (stereo not shown)   1.64 °C
2  CC(C)C(C#N)N1CCN(Cc2nccn2CC(F)(F)F)CC1 (stereo not shown)   1.19 °C
3  CC(C)C(C#N)N1CCN(C(=O)CSc2ccc(Br)cc2)CC1 (stereo not shown)   1.64 °C
